Data provenance is PubChem BioAssay AID485344.

Let's look at some molecules and their measured inhibition.
Target: D(2) dopamine receptor (Homo sapiens)
Assay: HTS Assay for Allosteric Antagonists of the Human D2 Dopamine Receptor: Primary Screen for Antagonists; further: 0% is about no effect
Conditions: HEK293 TREx D2 cells, calcium flux, dopamine EC80; at 10 µM; hits give high values
About 6,900 (2%) of roughly 340,000 compounds were called active. What follows is part of a selection rich in actives, with near analogues and random picks from the rest.

                                   molecule       readout_value
0  O=C(O)C1C2C=CC(C2)C1C(=O)NCc1ccccc1 (stereo unspecified)    3.26% (inactive)
1  COc1ccccc1CN1CCN(Cc2cc(OC)c(OC)cc2OC)CC1  -0.792% (inactive)
2  O=C(CCNC(=O)c1ccc(Cl)cc1)NC1CCCc2ccccc21 (stereo unspecified)   -3.04% (inactive)
3       CC(C)OCCCNc1ncnc2c1[nH]c1ccc(F)cc12   -11.8% (inactive)
4  O=C(C1CCC1)N1CCN(S(=O)(=O)c2ccc([N+](=O)[O-])cc2)CC1   -8.41% (inactive)

Kindly review the next molecule as well.
Measured inhibition, Cn1c(=O)[nH]c(=O)c2c1nc(CN(Cc1ccccc1)Cc1ccccc1)n2CCN1CCOCC1 : 10.3% (inactive)

###

Target: D(2) dopamine receptor (Homo sapiens)
Experiment: HTS Assay for Allosteric Antagonists of the Human D2 Dopamine Receptor: Primary Screen for Antagonists; further: 0% is about no effect
Conditions: HEK293 TREx D2 cells, calcium flux, dopamine EC80; at 10 µM; hits give high values
Among all 340,000 compounds or so, about 6,900 (2%) were called active. Shown is part of a subset that was picked to be rich in actives.
observation.type: inhibition (%)
Note: unit % is implicit; provide only the numeric part.

>>> print(df.to_string())
                                   compound  observation_type  readout_value
0  Brc1ccc(CN2CC[C@H]3C=CCc4cccc(c43)C2)cc1        inhibition          -16.8
1  CCC(C)[C@H]1COCCS(=O)(=O)N1Cc1ccc(C)cc1 (some centres undefined)        inhibition           36.6
2               COC(=O)c1ccc(CSc2ccccc2C)o1        inhibition           34.1

Measured inhibition, COc1ccc(-c2cc(C(=O)N(C)CC(=O)Nc3ccccc3Cl)c3ccccc3n2)cc1OC : 1.05
